- subject.of.test: sarkosyl insoluble (SI) α-synuclein (human α-SYN A53T) (Homo sapiens, UniProt P37840, A53T)
- Construct: expressed in transfected cells
- run.description: MJFF-14-6-4-2 conformation specific ELISA of sarkosyl insoluble α-synuclein after compound treatment
- Assay type: cell-based
- experimental.context: 1 μM compound; protein remaining relative to DMSO control; PFF induced A53T α-synuclein overexpressing HEK293 cells; read-out: Protein Degradation at 1 μM
Counter-ions that a name gives are not always drawn.
measure: remaining activity at 1 µM

Below are worked cases with known answers.
- COc1ccc2nc(-c3ccc(N4CC(OC5CCN(CCCCCOc6ccc7c(c6)C(=O)N(C6CCC(=O)NC6=O)C7=O)CC5)C4)cc3)sc2c1 (centres unmarked): > 120%
- CNc1ccc(-c2nc3ccc(OCCOCCOCCOCCOCCOCC(=O)N[C@H](C(=O)N4C[C@H](O)C[C@H]4C(=O)N[C@@H](C)c4ccc(-c5scnc5C)cc4)C(C)(C)C)cc3s2)cc1: < 35%
- O=C1CCC(N2C(=O)c3ccc(OCCCCCN4CCC(OC5CN(CCCN6c7ccccc7Sc7ccccc76)C5)CC4)cc3C2=O)C(=O)N1 (centres unmarked): 35 to 70%
- CN(C)c1ccc2c(c1)Sc1cc(OCCOCCOCCOCCOCCOc3ccc4c(c3)C(=O)N(C3CCC(=O)NC3=O)C4=O)ccc1N2 (centres unmarked): 35 to 70%

Next compound, please.
Query block: Recorded remaining activity at 1 µM for O=C1CCC(N2C(=O)c3ccc(N4CCN(CCCO[C@H]5C[C@H](Oc6ccc7c(c6)Sc6cc([N+](=O)[O-])ccc6N7)C5)CC4)cc3C2=O)C(=O)N1 (some centres unmarked) [Exemplary Compound 30, formate] , please?
Result block: 35 to 70%

Source of measurements: patent US12594264B2
